system: FGFR1 kinase (Homo sapiens (Human), UniProt P11362)
Sequence (P11362 22-822): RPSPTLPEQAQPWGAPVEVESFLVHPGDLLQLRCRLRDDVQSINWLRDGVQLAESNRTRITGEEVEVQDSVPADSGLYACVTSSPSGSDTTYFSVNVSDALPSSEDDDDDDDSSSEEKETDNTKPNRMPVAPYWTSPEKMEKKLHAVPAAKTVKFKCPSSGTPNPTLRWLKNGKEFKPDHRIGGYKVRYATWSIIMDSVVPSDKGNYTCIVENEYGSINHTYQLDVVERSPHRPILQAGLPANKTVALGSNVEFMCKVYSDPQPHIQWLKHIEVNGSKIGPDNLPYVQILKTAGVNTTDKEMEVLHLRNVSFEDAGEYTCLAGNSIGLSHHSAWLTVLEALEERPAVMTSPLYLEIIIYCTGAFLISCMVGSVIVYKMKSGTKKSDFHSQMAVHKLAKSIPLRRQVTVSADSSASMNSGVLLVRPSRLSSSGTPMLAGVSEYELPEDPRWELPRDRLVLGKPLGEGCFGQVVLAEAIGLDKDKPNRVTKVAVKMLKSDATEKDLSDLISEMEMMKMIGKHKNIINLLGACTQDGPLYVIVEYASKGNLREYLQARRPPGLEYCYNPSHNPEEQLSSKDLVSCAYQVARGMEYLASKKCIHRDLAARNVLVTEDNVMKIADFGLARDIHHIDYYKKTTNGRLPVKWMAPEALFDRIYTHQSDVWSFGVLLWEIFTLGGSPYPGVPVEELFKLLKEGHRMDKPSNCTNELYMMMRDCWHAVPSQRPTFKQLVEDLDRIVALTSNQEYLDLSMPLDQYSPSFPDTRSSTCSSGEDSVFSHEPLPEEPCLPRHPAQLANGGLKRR
Quick reference: IC50 of the listed items.
experimental-readout: IC50 (nM)

| smiles-string | observed |
| --- | --- |
| CC(=O)Nc1cc(-n2cncn2)cc(-n2cnc3cc(-c4cnn(C)c4)ccc32)c1 | 62 |
| CC(=O)Nc1cc(-n2cccn2)cc(-n2cnc3cc(-c4cnn(CC5CC5)c4)ccc32)c1 | 62 |
| CC(=O)Nc1cc(-c2ccc(C)o2)cc(-n2cnc3cc(-c4cnn(CCN(C)C)c4)ccc32)c1 | 16 |
| Cn1cc(-c2ccc3c(c2)ncn3-c2cc(NC(=O)Cn3cncn3)cc(-c3ccc(F)cc3F)c2)cn1 | 2.9 |
